- Test system: primary human total T-cells
- experimental-details: T-cell activation, IL-2 secretion, Biological Example 2
- Format: cell-based
- study-conditions: anti-CD3 stimulation alone, 48 hours, 3 μM inhibitor, fold change over baseline
Items are presented alongside their recorded fold induction at 3 µM.

{"columns": ["compound", "fold induction at 3 µM"],
 "data": [
  ["Cn1cnnc1C[C@]1(c2cccc(N3Cc4c(cccc4C(F)(F)F)C3=O)c2)C[C@H](C#N)C1", "< 0.4"],
  ["CC1CCN(Cc2cc3c(c(C(F)(F)F)c2)CN(c2cccc([C@]4(Cc5nncn5C)C[C@@H](C#N)C4)c2)C3=O)CCO1 (stereo partly shown)", "0.4 to 0.85"],
  ["Cn1cnnc1C[C@]1(c2cccc(N3Cc4c(cc(CN[C@H]5CCC(F)(F)C5)cc4C(F)(F)F)C3=O)c2)C[C@H](C#N)C1", "> 0.85"],
  ["C[C@H]1CCCN(Cc2cc(C(=O)Nc3cccc([C@]4(Cc5nncn5C)C[C@@H](C#N)C4)c3)nc(C3CC3)c2)C1", "> 0.85"],
  ["COCC1CCCCN(Cc2cc3c(c(C(F)(F)F)c2)CN(c2cccc([C@]4(Cc5nncn5C)C[C@@H](C#N)C4)c2)C3=O)C1 (stereo partly shown)", "> 0.85"],
  ["Cn1cnnc1C[C@]1(c2cccc(N3Cc4c(cc(CN5CC6CCC(F)(F)C6C5)cc4C(F)(F)F)C3=O)c2)C[C@H](C#N)C1 (stereo partly shown)", "> 0.85"],
  ["Cn1cnnc1C[C@]1(c2cccc(N3Cc4c(cc(CNC5COC(C)(C)C5)cc4C(F)(F)F)C3=O)c2)C[C@H](C#N)C1 (stereo partly shown)", "0.4 to 0.85"],
  ["Cn1cnnc1C[C@]1(c2cccc(NC(=O)c3cc(CN4CCC5(CC5)C4)cc(C4CC4)n3)c2)C[C@H](C#N)C1", "0.4 to 0.85"]
]}

Challenge: Give a short answer stating reported fold induction at 3 µM for Cn1cnnc1C[C@]1(c2cccc(N3Cc4c(cc(CNC5CCC(C)(C)C5)cc4C(F)(F)F)C3=O)c2)C[C@H](C#N)C1 (stereo partly shown) .
Response given: > 0.85

Challenge: Give a short answer stating reported fold induction at 3 µM for CC1CCCN(Cc2cc3c(c(C(F)(F)F)c2)CN(c2cccc([C@]4(Cc5nncn5C)C[C@@H](C#N)C4)c2)C3=O)CC1 (stereo partly shown) .
Response given: 0.4 to 0.85

Challenge: Give a short answer stating reported fold induction at 3 µM for `C[C@@H]1CN(Cc2cc3c(c(C(F)(F)F)c2)CN(c2cccc([C@]4(Cc5nncn5C)C[C@@H](C#N)C4)c2)C3=O)C[C@H](C)O1` .
Response given: > 0.85

Challenge: Give a short answer stating reported fold induction at 3 µM for Cn1cnnc1C[C@]1(c2cccc(N3Cc4c(cc(CNC5CC6C(C5)C6(F)F)cc4C(F)(F)F)C3=O)c2)C[C@H](C#N)C1 (stereo partly shown) .
Response given: 0.4 to 0.85

Challenge: Give a short answer stating reported fold induction at 3 µM for `C[C@@H]1CN(Cc2cc3c(c(C(F)(F)F)c2)CN(c2cccc([C@]4(Cc5nncn5C)C[C@@H](C#N)C4)c2)C3=O)CCO1` .
Response given: 0.4 to 0.85

====

- Test system: primary human total T-cells
- experimental-details: T-cell activation, CD25 surface staining, Biological Example 2
- Assay type: cell-based
- study-conditions: anti-CD3 and anti-CD28 co-stimulation, 48 hours, 0.3 μM inhibitor, fold change over baseline
Items are presented alongside their recorded fold induction at 0.3 µM.

Consider the worked cases shown below.
{"columns": ["compound", "endpoint-result"],
 "data": [
  ["Cn1cnnc1C[C@]1(c2cccc(N3Cc4c(cc(CN5CC6COC(C6)C5)cc4C(F)(F)F)C3=O)c2)C[C@H](C#N)C1 (some centres unmarked)", "> 1.39"],
  ["C[C@@H]1C[C@H](C)CN(Cc2cc(C(=O)Nc3cccc([C@]4(Cc5nncn5C)C[C@@H](C#N)C4)c3)nc(C3CC3)c2)C1", "1.24 to 1.39"],
  ["Cn1cnnc1C[C@]1(c2cccc(N3Cc4c(cc(CN5CCC6CCC(C5)O6)cc4C(F)(F)F)C3=O)c2)C[C@H](C#N)C1 (some centres unmarked)", "1.24 to 1.39"],
  ["C[C@@H]1CN(Cc2cc(C(=O)Nc3cccc([C@]4(Cc5nncn5C)C[C@@H](C#N)C4)c3)nc(C3CC3)c2)CCO1", "≤ 1.24"],
  ["Cn1cnnc1C[C@]1(c2cccc(N3Cc4c(cc(CN5CCCOC(CO)C5)cc4C(F)(F)F)C3=O)c2)C[C@H](C#N)C1 (some centres unmarked)", "1.24 to 1.39"]
]}

Challenge: Give a short answer stating reported fold induction at 0.3 µM for `Cn1cnnc1C[C@]1(c2cccc(NC(=O)c3cc(CN4CCC5(CC5)C4)cc(C4CC4)n3)c2)C[C@H](C#N)C1` .
Response given: ≤ 1.24

Challenge: Give a short answer stating reported fold induction at 0.3 µM for `C[C@@H]1CN(Cc2cc3c(c(C(F)(F)F)c2)CN(c2cccc([C@]4(Cc5nncn5C)C[C@@H](C#N)C4)c2)C3=O)C[C@H](C)O1` .
Response given: 1.24 to 1.39

Challenge: Give a short answer stating reported fold induction at 0.3 µM for `Cn1cnnc1C[C@]1(c2cccc(N3Cc4c(cc(CN5CCC6(CC6)C5)cc4C(F)(F)F)C3=O)c2)C[C@H](C#N)C1` .
Response given: 1.24 to 1.39
